These measurements were taken from ChEMBL document CHEMBL3885861.

species: Rattus norvegicus; assay: Open TG-GATES - Regimen: Single; type: toxicity, organism-based, Sprague-Dawley; design: regimen Single, gender Male, age 6 weeks; details: in vivo, po, 10 mg/kg, 6 h, tissue Blood, route gavage, dose level Low
readout: Bas (%)
Please give a number only; it is taken to be in %.

A selection of reference data follows.
Find the recorded Bas belonging to CC(C)OC(=O)C(C)(C)Oc1ccc(C(=O)c2ccc(Cl)cc2)cc1 [FENOFIBRATE] and report it.
0

Find the recorded Bas belonging to CN(C)CCCN1c2ccccc2CCc2ccc(Cl)cc21 [CLOMIPRAMINE] and report it.
0

Find the recorded Bas belonging to CN(C)CCN(Cc1cccs1)c1ccccn1 and report it.
0

Find the recorded Bas belonging to CN(C)CCCN1c2ccccc2CCc2ccccc21 [IMIPRAMINE] and report it.
0.2

Consider the record given below.
Find the recorded Bas belonging to CC1=C(/C=C/C(C)=C/C=C/C(C)=C/CO)C(C)(C)CCC1 [RETINOL] and report it.
0

###

species: Rattus norvegicus; test: Open TG-GATES - Regimen: Single; type: toxicity, organism-based, Sprague-Dawley; set-up: regimen Single, gender Male, age 6 weeks; settings: in vivo, po, 300 mg/kg, 9 h, tissue Blood, route gavage, dose level Middle
readout: MCH (pg)
Please give a number only; it is taken to be in pg.

A selection of reference data follows.
Find the recorded MCH belonging to CCOC(=O)CCC(=O)O[C@H]1[C@H](O[C@@H]2[C@@H](C)[C@H](O[C@H]3C[C@@](C)(OC)[C@@H](O)[C@H](C)O3)[C@@H](C)C(=O)O[C@H](CC)[C@@](C)(O)[C@H](O)[C@@H](C)C(=O)[C@H](C)C[C@@]2(C)O)O[C@H](C)C[C@@H]1N(C)C [ERYTHROMYCIN ETHYLSUCCINATE] and report it.
20.8

Find the recorded MCH belonging to NC(N)=Nc1nc(CSCCC(N)=NS(N)(=O)=O)cs1 [FAMOTIDINE] and report it.
22.3

Further cases:
Find the recorded MCH belonging to COC1=CC(=O)C[C@@H](C)[C@]12Oc1c(Cl)c(OC)cc(OC)c1C2=O [GRISEOFULVIN] and report it.
21.4

Find the recorded MCH belonging to COc1ccc2[nH]c([S+]([O-])Cc3ncc(C)c(OC)c3C)nc2c1 (centres undefined) [OMEPRAZOLE] and report it.
21.4

###

species: Rattus norvegicus; test: Open TG-GATES - Regimen: Single; type: toxicity, organism-based, Sprague-Dawley; set-up: regimen Single, gender Male, age 6 weeks; conditions: in vivo, po, 100 mg/kg, 3 h, tissue Plasma, route gavage, dose level High
readout: TBIL (mg/dL)
Please give a number only; it is taken to be in mg/dL.

A selection of reference data follows.
Find the recorded TBIL belonging to CN(C)CCN(Cc1cccs1)c1ccccn1 and report it.
0.012

Find the recorded TBIL belonging to CN(C)CCCN1c2ccccc2CCc2ccccc21 and report it.
0.07

Find the recorded TBIL belonging to CN(C)CCCN1c2ccccc2CCc2ccc(Cl)cc21 and report it.
0.068

Consider the record given below.
Find the recorded TBIL belonging to CC1=C(/C=C/C(C)=C/C=C/C(C)=C/CO)C(C)(C)CCC1 and report it.
0.006
